system: Zika virus NS2B-NS3 protease (unlinked complex); experiment: Primary screen GU Rhodamine qHTS for Zika virus inhibitors: Unlinked NS2B-NS3 protease assay (AID 1347159); conditions: Recombinant ZIKV NS2B-NS3 protease, Rhodamine110 substrate fluorescence; series mostly up to 107 µM; further: nearly all actives have a fitted effect of over 60% in size
Results filed as inconclusive are left out. The source made the active and inactive calls. The call rests on the fitted dose curve; in most records, active means well fitted inhibition curve with a large enough effect; inconclusive means small, poorly fitted or top-dose-only effect; inactive means no such curve, though single readings can be large or run the other way.
Please state which outcome applies, choosing from class 1 for active, class 0 for inactive

molecule	answer_label
NS(=O)(=O)c1ccc(NC(=O)Nc2ccc(F)cc2)cc1	class 0
CC(=O)O[C@H]1[C@@]2(O)C[C@H](C)[C@H](OC(=O)c3ccccc3)[C@@H]2[C@@H](OC(=O)CO)[C@]2(OC(C)=O)C[C@H]3C(=O)C(C)(C)C[C@@H]3[C@@]1(C)[C@H]2OC(C)=O	class 0
O=C(NCCCc1ccccc1)c1cccc(-c2cc(O)c3ncccc3c2)c1	class 1
C=C(C(=O)O[C@H]1C/C(C)=C/CC/C(CO)=C/[C@H]2OC(=O)C(=C)[C@H]12)C(O)CO (stereo partly drawn)	class 0
COc1cc(N2CCOCC2)ccc1NC(=O)c1csc(-c2cccnc2)n1	class 0

Lookup: Please share the test call associated with CC1CCC(=O)CC(SCC(O)C(=O)O)CCC(=O)O1 (stereo not drawn) .
Found: class 0

Lookup: Please share the test call associated with CC1(C)CN(C(=O)c2ccc(-c3cccc4nc(NC(=O)C5CC5)nn34)cc2)C1 .
Found: class 0

Lookup: Please share the test call associated with CC(=O)N1CCN(CCOc2ccc(C3CCN(C4=Nn5c(nnc5C(F)(F)F)CC4)CC3)cc2)CC1 .
Found: class 0

Lookup: Please share the test call associated with N#Cc1ccc2ncnc(NCCc3ccccc3)c2c1 .
Found: class 0

Lookup: Please share the test call associated with O=C(NCCCc1ccccc1)C1CCC(CNS(=O)(=O)c2cccc3nsnc23)CC1 (stereo not drawn) .
Found: class 0

Lookup: Please share the test call associated with O=c1cc(OCc2ccc(F)cc2)ccn1-c1ccc(OCCN2CCCC2)cc1 .
Found: class 0

Lookup: Please share the test call associated with NC(=O)C1=CC2C3C=CC2C(OC3=O)O1 (stereo not drawn) .
Found: class 0

Lookup: Please share the test call associated with CCCN1CCC=C(c2cc(-c3ccc(C)cc3)no2)C1 .
Found: class 0

Lookup: Please share the test call associated with CC(=O)[C@H]1CC[C@H]2[C@@H]3CC=C4C[C@@H](OS(=O)(=O)O)CC[C@]4(C)[C@H]3CC[C@]12C .
Found: class 1

Lookup: Please share the test call associated with C=C1[C@H]2CC[C@H](C(=O)O)[C@@]23CC[C@H](C3)C1(C)C .
Found: class 0

====

tested on: Es-2; assay: Primary qHTS to identify gynecologic anti-cancer compounds using libraries of approved drugs and bioactive compounds (AID 1345084); conditions: Gynecologic cancer cell panel viability, ATPlite luminescence, 48 h; series mostly up to 57.5 µM; further: nearly all actives have a fitted effect of over 55% in size; further: potency means the concentration at half of the fitted maximal effect
Inconclusive results are not listed. Activity calls are given as the source filed them. The call rests on the fitted dose curve; in most records, active means well fitted cell-killing curve with a large enough effect; inconclusive means small, poorly fitted or top-dose-only effect, or effect the other way; inactive means flat fitted curve, though single readings scatter.
parameter_measured: Potency

Illustrative cases are given below, each with its answer.
compound	observed_measurement
O=C(NNc1nc2cc(F)ccc2n2cccc12)c1cnccn1	7.08 µM (active)
NS(=O)(=O)Nc1ncnc(OCCOc2ncc(Br)cn2)c1-c1ccc(Br)cc1	inactive
CNCCCC1(c2ccccc2)OC(C)(C)c2ccccc21 (stereo not given)	inactive
CC1(C=O)CCCC2(C)C1CCC13CC(CO)C(CCC12)C3 (stereo not given)	inactive

The measured Potency associated with CCOc1cn(-c2ccc(F)cc2C)nc1C(=O)Nc1ccc(Oc2ccnc3cc(OC)c(OC)cc23)c(F)c1 reads inactive
